System: Klebsiella pneumoniae
test.name: Antimicrobial activity against extended-spectrum beta lactamase producing Klebsiella pneumoniae expressing beta-lactamase CTX-M-14 and CTX-M-27 gene and other bla gene by Etest
Format: functional
test.readout: MIC90

Known MIC90 results, listed for orientation:
compound.smiles: C[C@@H](O)[C@H]1C(=O)N2C(C(=O)O)=C(S[C@@H]3CN[C@H](C(=O)N(C)C)C3)[C@H](C)[C@H]12
system.name: Klebsiella pneumoniae
MIC90: 0.064 µg/mL

compound.smiles: CC(C)(O/N=C(\C(=O)N[C@@H]1C(=O)N2C(C(=O)[O-])=C(C[n+]3ccccc3)CS[C@H]12)c1csc(N)n1)C(=O)O
system.name: Klebsiella pneumoniae
MIC90: > 256 µg/mL

Data request: Any idea what MIC90 was measured for CO/N=C(\C(=O)N[C@@H]1C(=O)N2C(C(=O)O)=C(CSc3nc(=O)c(O)nn3C)CS[C@H]12)c1csc(N)n1 ?
Data returned: > 256 µg/mL

----------
Tested on: Escherichia coli
test.name: Antimicrobial activity against extended-spectrum beta lactamase producing Escherichia coli expressing beta-lactamase CTX-M-14 and CTX-M-27 and other bla gene by Etest
Type: functional
test.readout: MIC90 (µg/mL)
Numbers only, in µg/mL.

Kindly give each listed record's MIC90.
1. C[C@@H](O)[C@H]1C(=O)N2C(C(=O)O)=C(SCCNC=N)C[C@H]12 [IMIPENEM ANHYDROUS]
2. C[C@@H](O)[C@H]1C(=O)N2C(C(=O)O)=C(S[C@@H]3CN[C@H](C(=O)N(C)C)C3)[C@H](C)[C@H]12
3. C[C@@H](O)[C@H]1C(=O)N2C(C(=O)O)=C(S[C@@H]3CN[C@H](C(=O)Nc4cccc(C(=O)O)c4)C3)[C@H](C)[C@H]12
4. CO/N=C(\C(=O)N[C@@H]1C(=O)N2C(C(=O)O)=C(COC(C)=O)CS[C@H]12)c1csc(N)n1

Data returned:
1. 0.38
2. 0.064
3. 0.25
4. 256

----------
System: Klebsiella pneumoniae
test.name: Antimicrobial activity against extended-spectrum beta lactamase producing Klebsiella pneumoniae expressing beta-lactamase CTX-M-14 and CTX-M-27 gene and other bla gene by Etest
Assay type: functional
So I've got a bunch of molecules here, and I need their MIC90 values.
Answers are plain numbers, in µg/mL.

Known MIC90 results, listed for orientation:
molecule: CO/N=C(\C(=O)N[C@@H]1C(=O)N2C(C(=O)O)=C(COC(C)=O)CS[C@H]12)c1csc(N)n1 [CEFOTAXIME]
MIC90, µg/mL: 256

molecule: C[C@@H](O)[C@H]1C(=O)N2C(C(=O)O)=C(S[C@@H]3CN[C@H](C(=O)Nc4cccc(C(=O)O)c4)C3)[C@H](C)[C@H]12 [ERTAPENEM]
MIC90, µg/mL: 0.25

Proceed to the following item.
Data request: Any idea what MIC90 was measured for C[C@@H](O)[C@H]1C(=O)N2C(C(=O)O)=C(SCCNC=N)C[C@H]12 [IMIPENEM ANHYDROUS] ?
Data returned: 0.38

----------
System: Klebsiella pneumoniae
test.name: Antimicrobial activity against extended-spectrum beta lactamase producing Klebsiella pneumoniae by Etest
Assay type: functional
So I've got a bunch of compounds here, and I need their MIC90 values.
One number for each entry, in µg/mL.

compound: C[C@@H](O)[C@H]1C(=O)N2C(C(=O)O)=C(SCCNC=N)C[C@H]12 [IMIPENEM ANHYDROUS]
observed.measurement: 0.38
--
compound: C[C@@H](O)[C@H]1C(=O)N2C(C(=O)O)=C(S[C@@H]3CN[C@H](C(=O)N(C)C)C3)[C@H](C)[C@H]12
observed.measurement: 0.125

Data request: Any idea what MIC90 was measured for C[C@@H](O)[C@H]1C(=O)N2C(C(=O)O)=C(S[C@@H]3CN[C@H](C(=O)Nc4cccc(C(=O)O)c4)C3)[C@H](C)[C@H]12 ?
Data returned: 0.38

These entries and their values trace back to ChEMBL document CHEMBL1275460.
